# ASSAY PROTOCOL: basal CRE-LacZ reporter activity in PC12 – cell-based, unstimulated, primary screen (AID 1145)
# DETAILS: no forskolin, luminescence, 4.5 h, higher = more signal, called active from +8 up or from −8 down
Activity calls are given as the source filed them.
Listed next: entries and their corresponding z-score.
QUANTITY NAME: z-score

[
  {
    "COMPOUND": "CCCCC(CC)C(O)C1C=CC2C(=O)NC(=O)C2N1Nc1ccccn1 (centres undefined)",
    "QUANTITY NAME": "z-score",
    "OBSERVED RESULT": "-0.322 (inactive)"
  },
  {
    "COMPOUND": "COC(=O)C(CC#Cc1ccc2c(c1)[C@]1(C(=O)N2)[C@H](C(=O)N2CCc3cc(OC)c(OC)cc3C2)[C@H]2C(=O)O[C@H](c3ccccc3)[C@H](c3ccccc3)N2[C@@H]1c1ccc(OCCO)cc1)C(=O)OC",
    "QUANTITY NAME": "z-score",
    "OBSERVED RESULT": "0.865 (inactive)"
  },
  {
    "COMPOUND": "CN1C(=O)C2C=CC(C(O)c3cccc4ccccc34)N(NC(=O)OC(C)(C)C)C2C1=O (centres undefined)",
    "QUANTITY NAME": "z-score",
    "OBSERVED RESULT": "1 (inactive)"
  },
  {
    "COMPOUND": "CC(C)CCC[C@@H](C)[C@H]1CC[C@@]2(C)C3=C(CC[C@]12C)[C@@]1(C)CC[C@H](OC(=O)c2ccc(N)cc2)C(C)(C)C1CC3 (some centres undefined)",
    "QUANTITY NAME": "z-score",
    "OBSERVED RESULT": "1.39 (inactive)"
  },
  {
    "COMPOUND": "CN1C(=O)C2C=CC(C(O)c3ccc(F)cc3)N(N3CCCCC3)C2C1=O (centres undefined)",
    "QUANTITY NAME": "z-score",
    "OBSERVED RESULT": "1.01 (inactive)"
  },
  {
    "COMPOUND": "C=CC[C@]1(C(=O)N2CCOCC2)N=C(c2ccc(OCCCO)cc2)O[C@H]1c1ccccc1CN=[N+]=[N-]",
    "QUANTITY NAME": "z-score",
    "OBSERVED RESULT": "3.51 (inactive)"
  },
  {
    "COMPOUND": "COC(=O)[C@@]1(Cc2ccc(F)cc2)[C@H]2c3cc(C(=O)N(C)C)n(Cc4ccc(C)c(F)c4F)c3C[C@H]2CN1C(=O)c1ccccc1",
    "QUANTITY NAME": "z-score",
    "OBSERVED RESULT": "0.0041 (inactive)"
  },
  {
    "COMPOUND": "COCCCNC(=O)[C@@]1(Cc2ccccc2)COC(c2ccc(OCCCO)cc2)=N1",
    "QUANTITY NAME": "z-score",
    "OBSERVED RESULT": "-0.0808 (inactive)"
  },
  {
    "COMPOUND": "COCCOC(=O)N1C(=O)[C@@]2(c3cc(C#CCCO)ccc31)[C@H](C(=O)NC[C@H](O)c1ccccc1)[C@H]1C(=O)O[C@H](c3ccccc3)[C@H](c3ccccc3)N1[C@@H]2c1ccccc1OCCO",
    "QUANTITY NAME": "z-score",
    "OBSERVED RESULT": "-0.0607 (inactive)"
  },
  {
    "COMPOUND": "O=C(O)[C@@]1(Cc2ccccc2)COC(c2ccc(OCCCO)cc2)=N1",
    "QUANTITY NAME": "z-score",
    "OBSERVED RESULT": "-0.277 (inactive)"
  },
  {
    "COMPOUND": "COCCOC(=O)N1C(=O)[C@@]2(c3cc(C#CC4(O)CCCCCC4)ccc31)[C@H](C(=O)N1CCc3cc(OC)c(OC)cc3C1)[C@H]1C(=O)O[C@H](c3ccccc3)[C@H](c3ccccc3)N1[C@@H]2c1ccccc1OCCO",
    "QUANTITY NAME": "z-score",
    "OBSERVED RESULT": "0.0736 (inactive)"
  },
  {
    "COMPOUND": "CC1C=C(CCCO)C=C(C(=O)OCCS(C)(=O)=O)C(C(=O)OCCS(C)(=O)=O)=CN1Cc1cccc(OC(F)(F)F)c1 (centres undefined)",
    "QUANTITY NAME": "z-score",
    "OBSERVED RESULT": "-0.364 (inactive)"
  },
  {
    "COMPOUND": "COC(=O)C(CC#Cc1ccc2c(c1)[C@]1(C(=O)N2)[C@H](c2ccc(O)cc2)N2[C@H](c3ccccc3)[C@H](c3ccccc3)OC(=O)[C@H]2[C@@H]1C(=O)O)C(=O)OC",
    "QUANTITY NAME": "z-score",
    "OBSERVED RESULT": "0.389 (inactive)"
  },
  {
    "COMPOUND": "COC(=O)[C@@]1(Cc2ccc(OC)cc2)[C@H]2c3cc(C(=O)N4CCCC4)n(CCc4ccc(O)c(OC)c4)c3C[C@H]2CN1C(=O)c1ccccc1",
    "QUANTITY NAME": "z-score",
    "OBSERVED RESULT": "2.5 (inactive)"
  }
]

----------
# STUDY TARGET: Luciferin 4-monooxygenase (Photinus pyralis) (UniProt P08659)
# Sequence (P08659 whole entry, looked up): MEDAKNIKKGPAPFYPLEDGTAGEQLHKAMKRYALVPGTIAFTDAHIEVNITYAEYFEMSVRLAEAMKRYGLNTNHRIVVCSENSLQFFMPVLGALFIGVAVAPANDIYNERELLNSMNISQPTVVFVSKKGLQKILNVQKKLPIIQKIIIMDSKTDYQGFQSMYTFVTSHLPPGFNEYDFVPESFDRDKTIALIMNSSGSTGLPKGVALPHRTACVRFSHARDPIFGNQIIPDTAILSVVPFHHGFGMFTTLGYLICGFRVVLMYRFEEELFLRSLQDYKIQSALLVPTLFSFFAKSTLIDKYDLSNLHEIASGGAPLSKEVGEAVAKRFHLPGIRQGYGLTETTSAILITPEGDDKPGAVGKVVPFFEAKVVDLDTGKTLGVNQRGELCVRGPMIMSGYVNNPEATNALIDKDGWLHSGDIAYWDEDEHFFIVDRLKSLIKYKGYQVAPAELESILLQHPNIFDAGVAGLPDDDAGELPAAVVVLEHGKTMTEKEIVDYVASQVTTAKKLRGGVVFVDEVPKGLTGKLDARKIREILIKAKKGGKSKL
# ASSAY PROTOCOL: inhibition of purified Photinus pyralis luciferase – biochemical, luminescence, purified enzyme, 2006 set, primary screen (AID 1141);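 further: cell-free assay with purified firefly luciferase at 100 ng per well in PBS; test concentration not given here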
# DETAILS: purified firefly luciferase, SteadyGlo luminescence, 30 min; higher = more signal, called active from +8 up or from −8 down
Recorded measurements of z-score, one per entry

[
  {
    "MOLECULE": "COc1ccc([Si](C)(C)[C@@H]2[C@@H](CCO)O[C@]3(C(=O)N(Cc4ccccc4)c4ccc(N5C(=O)COc6ccccc65)cc43)[C@H]2C)cc1",
    "z-score": 0.806
  },
  {
    "MOLECULE": "O=C1C2C=CC(C(O)c3cccc4ccccc34)N(Nc3ccccc3)C2C(=O)N1c1ccccc1 (centres undefined)",
    "z-score": -1.05
  },
  {
    "MOLECULE": "COCCCNC(=O)[C@]1(CCS(=O)(=O)c2ccccc2)N=C(c2ccc(OCCCO)cc2)O[C@@H]1c1ccccc1",
    "z-score": -1.45
  },
  {
    "MOLECULE": "CC1(C)[C@@H]2CC(C(O)C3C=CC4C(=O)N(c5ccccc5)C(=O)C4N3Nc3ccccc3F)=C[C@@H]1C2 (some centres undefined)",
    "z-score": 0.905
  }
]

----------
# STUDY TARGET: Streptavidin (Streptomyces avidinii) (UniProt P22629)
# Sequence (P22629 whole entry, looked up): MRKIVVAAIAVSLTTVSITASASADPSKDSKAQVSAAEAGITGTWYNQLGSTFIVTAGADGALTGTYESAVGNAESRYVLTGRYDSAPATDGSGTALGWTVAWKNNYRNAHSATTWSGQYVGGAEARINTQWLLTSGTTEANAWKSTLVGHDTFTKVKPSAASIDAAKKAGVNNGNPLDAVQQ
# ASSAY PROTOCOL: compounds binding control protein streptavidin – biophysical, small-molecule microarray, 635/667 nm fluorescence, artefact control for SMM compound annotation, primary screen (AID 1147);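 further: signal reflects streptavidin binding to arrayed compounds as a control protein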
# DETAILS: higher = more signal

[
  {
    "COMPOUND": "COCCOC(=O)N1C(=O)[C@@]2(c3cc(C#CCCO)ccc31)[C@H](C(=O)NC[C@H](O)c1ccccc1)[C@H]1C(=O)O[C@H](c3ccccc3)[C@H](c3ccccc3)N1[C@@H]2c1ccccc1OCCO",
    "composite z-score": 0.562
  },
  {
    "COMPOUND": "[N-]=[N+]=NCc1ccccc1C[C@]1(C(=O)NCCN2CCOCC2)N=C(c2ccc(OCCCO)cc2)O[C@H]1c1ccccc1",
    "composite z-score": -0.0127
  },
  {
    "COMPOUND": "COC(=O)[C@@]1(Cc2ccc(OC)cc2)[C@H]2c3cc(C(=O)N4CCCC4)n(Cc4ccc(C)o4)c3C[C@H]2CN1C(=O)c1ccccc1",
    "composite z-score": 0.458
  },
  {
    "COMPOUND": "COC(=O)C(CC#Cc1ccc2c(c1)[C@]1(C(=O)N2)[C@H](C(=O)N2CCc3cc(OC)c(OC)cc3C2)[C@H]2C(=O)O[C@H](c3ccccc3)[C@H](c3ccccc3)N2[C@@H]1c1ccc(O)cc1)C(=O)OC",
    "composite z-score": 0.112
  },
  {
    "COMPOUND": "COCCOC(=O)N1C(=O)[C@@]2(c3cc(C#Cc4ccc(OC)cc4)ccc31)[C@H](c1ccc(OCCO)cc1)N1[C@H](c3ccccc3)[C@H](c3ccccc3)OC(=O)[C@H]1[C@@H]2C(N)=O",
    "composite z-score": 0.879
  },
  {
    "COMPOUND": "COCCCNC(=O)[C@@]1(C)c2ccccc2C(=O)N(c2ccc(C)cn2)[C@H]1c1ccc(CO)cc1",
    "composite z-score": -1.4
  },
  {
    "COMPOUND": "COCCOC(=O)N1C(=O)[C@@]2(c3ccccc31)[C@H](c1ccccc1OCCO)N1[C@H](c3ccccc3)[C@H](c3ccccc3)OC(=O)[C@H]1[C@@H]2C(=O)N1CCc2cc(OC)c(OC)cc2C1",
    "composite z-score": 0.02
  },
  {
    "COMPOUND": "O=C1NC(=O)C2C1C=CC(C(O)CCc1ccccc1)N2Nc1ccccn1 (configuration not stated)",
    "composite z-score": 0.179
  },
  {
    "COMPOUND": "CN1C(=O)C2C=CC(C(O)c3ccc(F)cc3)N(N3CCCCC3)C2C1=O (configuration not stated)",
    "composite z-score": 0.428
  },
  {
    "COMPOUND": "O=C1c2ccccc2[C@](Cc2ccccc2I)(C(=O)NCC(F)(F)F)[C@H](c2ccc(CO)cc2)N1Cc1ccccc1",
    "composite z-score": 1
  },
  {
    "COMPOUND": "C=CC[C@@]1(C(=O)NCCN2CCOCC2)N=C(c2ccc(OCCCO)cc2)O[C@@H]1c1ccccc1",
    "composite z-score": 0.803
  },
  {
    "COMPOUND": "COCCCNC(=O)[C@]1(Cc2ccccc2CN=[N+]=[N-])N=C(c2ccc(OCCCO)cc2)O[C@@H]1c1ccccc1CN=[N+]=[N-]",
    "composite z-score": 1.23
  },
  {
    "COMPOUND": "CC1=C2[C@@H](CCc3ccccc3)OB(O)C[C@@H]2[C@@H]2C(=O)C=CC(=O)[C@@H]2C1",
    "composite z-score": 0.537
  },
  {
    "COMPOUND": "O=[N+]([O-])c1ccc(C[n+]2ccc(-c3ccc(CO)cc3)cc2)o1",
    "composite z-score": 0.85
  },
  {
    "COMPOUND": "Cc1ccc(S[C@]2(C(=O)NCC(C)C)CC(=O)N(C3CCCCC3)[C@@H]2c2ccc(CO)cc2I)cc1",
    "composite z-score": 0.411
  },
  {
    "COMPOUND": "COc1cc2c(cc1OC)CN(C(=O)[C@@H]1[C@H]3C(=O)O[C@H](c4ccccc4)[C@H](c4ccccc4)N3[C@H](c3ccc(O)cc3)[C@@]13C(=O)Nc1ccc(C#CCNC(N)=O)cc13)CC2",
    "composite z-score": 0.239
  },
  {
    "COMPOUND": "COC(=O)[C@@]1(Cc2ccc(OC)cc2)[C@H]2c3cc(C(=O)N4CCCC4)n(CCF)c3C[C@H]2CN1C(=O)c1ccccc1",
    "composite z-score": 1.5
  },
  {
    "COMPOUND": "O=C1OCC=C[C@H]2OC34C=CCN(CCN5CCOCC5)C(=O)[C@H]3N(CCCCCO)C(=O)[C@@H]4[C@@H]12 (some centres not stated)",
    "composite z-score": 0.257
  },
  {
    "COMPOUND": "COCCOC(=O)N1C(=O)[C@@]2(c3cc(C#CCNC(N)=O)ccc31)[C@H](c1ccc(OCCO)cc1)N1[C@H](c3ccccc3)[C@H](c3ccccc3)OC(=O)[C@H]1[C@@H]2C(=O)N1CCN(c2ncccn2)CC1",
    "composite z-score": 0.651
  },
  {
    "COMPOUND": "N#Cc1ccc(NN2C(C(O)c3ccccc3)C=CC3C(=O)N(c4ccccc4)C(=O)C32)cc1 (configuration not stated)",
    "composite z-score": 0.475
  },
  {
    "COMPOUND": "CC(=O)NCCCC[C@@H]1NC(=O)[C@@H]2C[C@H](C(=O)NCCCC[N+](C)(C)C)[C@H](c3cccc(OCCO)c3)N2C1=O",
    "composite z-score": -0.407
  },
  {
    "COMPOUND": "CCOC(=O)C1=CCC(c2cccc(Cl)c2)O1 (configuration not stated)",
    "composite z-score": -0.164
  },
  {
    "COMPOUND": "O=C1NC(=O)C2C1C=CC(C(O)c1ccc3c(c1)OCO3)N2Nc1ccc(Cl)cc1Cl (configuration not stated)",
    "composite z-score": 0.347
  },
  {
    "COMPOUND": "[N-]=[N+]=NCc1ccccc1[C@H]1OC(c2ccc(OCCCO)cc2)=N[C@@]1(Cc1ccccc1)C(N)=O",
    "composite z-score": 2.31
  },
  {
    "COMPOUND": "C=CCOC(=O)[C@H]1[C@@H]2C(=O)O[C@@H](c3ccccc3)[C@@H](c3ccccc3)N2[C@@H](c2ccc(OCCOC(=O)[C@H]3C[C@H]4C(=O)N[C@@H](CCCCN(C)C)C(=O)N4[C@H]3c3ccc(O)cc3)cc2)[C@]12C(=O)Nc1ccccc12",
    "composite z-score": -0.0375
  },
  {
    "COMPOUND": "COC(=O)[C@@]1(Cc2ccc(F)cc2)[C@H]2c3cc(C(=O)N4CCCC4)n(Cc4ccccc4)c3C[C@H]2CN1C(=O)c1ccccc1",
    "composite z-score": 1.38
  },
  {
    "COMPOUND": "COc1cc(C(O)C2C=CC3C(=O)NC(=O)C3N2Nc2ccc(Cl)cc2Cl)cc(OC)c1OC (configuration not stated)",
    "composite z-score": 1.59
  }
]
